# testSystem: T1, cynomolgus (cyno) MS4A4A (cynomolgus)
# T1 construct: also called cy4A; Cyno 4A
# assayText: FACS, HEK293, supernatant
# Method: Positive clones identified above were expanded and then rescreened for specificity against HEK293 cells overexpressing human MS4A4A or cyno MS4A4A and parental HEK293 cells. These experiments were performed using supernatants from hybridoma clones which had undergone further expansion after initial selection. Briefly, previously prepared, cryopreserved transiently-transfected cells were labeled with LIVE/DEAD Fixable Aqua Dead Cell Stain Kit (ThermoFisher Scientific L34957) on ice for 30 minutes. […]
measurementType: Cyno 4A:parental cell ratio (ratio)
Report the figure in ratio without appending any unit label.

Bench note: what Cyno 4A:parental cell ratio did anti-MS4A4A antibody 4A-12 (antibody, V domains shown, murine hybridoma antibody) VH: QVQLQQSGAELAQPGASVKMSCKASGYTFSSYWMYWVKQGPGQGLEWIGYINPGTGYTEYNQKFKDKATLTADKSSSTAYMQLSSLTSEDSAVYYCARFYYGSPYYYAMDYWGQGTSVTVSS VL: DIVMTQSQKFMSTSVGDRVTFTCKASQSVDTDVAWYQQKPGQSPKLLIYSASNRYTGVPDRFTGSGSGTDFTLTISNVQSEDLADYFCHQYNSYPLTFGAGTKLELK show? 3.96

Which measured Cyno 4A:parental cell ratio value corresponds to anti-MS4A4A antibody 4A-4 (antibody, V domains shown, murine hybridoma antibody) VH: EIQLQQTGPDLVKPGTSVKISCKASGYSFTDYVLVWVKQSHGKSLEWIGNINPYYGNSDYNLKFEGKARLTVDRSSSTAYMQLNSLTSEDSAVYYCARYGLYAMDFWGQGTSVTVSS VL: DVLMTQTPLSLPVSLGDQASISCRSSQTIVHSNGNSYLEWYLQKPGQSPKLLIYKVSNRFSGVPDRFSGSGSGTVFTLKISRVEAEDLGVYFCFQSSHVPLTFGVGTKLELK ? 2

Could you tell me which Cyno 4A:parental cell ratio is on file for anti-MS4A4A antibody 4A-23 (antibody, V domains shown, murine hybridoma antibody) VH: EVQLQQSGPELVKPGASVKMSCQASGYTFTDYNIHWVKQSHGKSLKWIGYINPNNDDTTFNQKFKGKATLTVNKSSSTAYMELRSLTSEDSAVYYCARSPYCYFDVWGTGTTVTVSS VL: DIQMTQSPSSLSASLGGKVTITCKASQDINKYIVWYQHKPGKGPRLLINYTSTLQPGIPSRFSGGGSGGDYSFSISNLEPEDIATYYCLQYDNLWTFGGGTKLEIK ? 1.22

Any idea what its Cyno 4A:parental cell ratio is? The binder is anti-MS4A4A antibody 4A-2 (antibody, V domains shown, murine hybridoma antibody) VH: QIQLVQSGPELKKPGETVKISCKASGYTFVDYEMNWVKQAPGKGLEWLGWINTYTGEPTYADDFQGRFAFSLVTSVSTAYLQINNLKHEDMATYLCTRNYYYGNGDVMDYWGQGTSVTVSS VL: QIVLTQSPAIMSASPGEKVTITCSASSSVSYIHWFQQKPGTSPKLWIYSTSNLASGVPARFSGSGSGTSYSLTISRMEAEDAATYYCQQRTGFPLTFGGGTQLEIK 9.63

Which Cyno 4A:parental cell ratio reading was recorded for the binder anti-MS4A4A antibody 4A-17 (antibody, V domains shown, murine hybridoma antibody) VH: QVQLQQSAAELMKPGASVKLSCKATGYTFTGYWIEWLKQRPGHGLEWIGEILPGIGNTKYSEKFKGKATFTADTSSNTAYMQLSSLTTEDSAIYYCARSLLRAMDYWGQGTSVTVSS VL: QIVLTQSPAIMSASPGEKVTMTCSAISSISYMHWYQLKPGTSPKRWIYDTSKLASGVPARFSGSGSGTSYSLTISSMEAEDAATYYCHQRSSYPYTFGGGTKLEIK ? 1.67

Which Cyno 4A:parental cell ratio is listed for anti-MS4A4A antibody 4A-3 (antibody, V domains shown, murine hybridoma antibody) VH: QIQLVQSGPELKTPGETVKISCKSSGYTFTKYGMNWVKQAPGKGLKWMAWINTYTAEPTYGDDFKGRFALSLETSANTAYLQINNLKNEDTATYFCARSAELVRHYYALDYWGQGTSVTVSS VL: DVLMTQTPLSLPVSLGDQASISCRSSQSLVHSNGNIYLEWFLQKPGQSLKILIYKVSNRFSGVPDRFSGSGSGTDFTLKISRVEADDLGVYYCSQGSHVPPTFGAGTKLELR ? 2.58

Query (binder): anti-MS4A4A antibody 4A-7 (antibody, V domains shown, murine hybridoma antibody) VH: EIQLQQTGPELVKPGASVKISCKASGYSFTDYVMIWVKQSHGKSLEWIGNINPYYGSTSYNLKFKGKATLTVDKSSSTAYMQLKSLTSEDSAVYYCARYGYDALDNWGQGTSVTVSS VL: DVLLTQTPLSLPVSLGDQASISCRSSQSIVHSNGNTYLDWSLQKPGQSPKLLIYRVSNRFSGVPDRFSGSGSGTDFTLKISRVEAEDLGVYYCFQGSHVPLTFGAGTKLELK ; field requested: Cyno 4A:parental cell ratio 3.98

# query: Cyno 4A:parental cell ratio of entry anti-MS4A4A antibody 4A-8 (antibody, V domains shown, murine hybridoma antibody) VH: EVKLVESGGGLVQPGGSLKLSCATSGFTFSDYYMYWVRQTPEKRLEWVAYINNGGGSTYYPDTVKGRFTISRDNAKNTLYLQMSRLKSEDTAMYYCARQGNLIYYSGSSLFAYWGQGTMVTVSS VL: DVLMTQTPLSLPVSLGDQASISCRSSQSIVHSNRNTYLEWYVQKPGQSPKLLIYKVSNRFSGVPDRFSGSGSGTDFTLKISRVEAEDLGVYYCFQGSHVPWTFGGGTKLEIK 3.3

Need Cyno 4A:parental cell ratio, item anti-MS4A4A antibody 4A-15 (antibody, V domains shown, murine hybridoma antibody) VH: EIQLQQTGPDLVKPGASVKISCKASGYSFTDYVILWVKQSHGKTLEWIGHINPYYANSDYNVNFRGKATLTVDKSSSTAHMQLNSLTSEDSAVYYCVRYGSGMDYWGQGTSVTVSS VL: DVLMTQTPLSLPVSLGDQASISCRSSQSIVHSDGNTYLEWYLQKPGQSPKLLIYKVSNRFSGVPDRFSGSGSGTDFTLKISRVEAEDLGVYYCFQGSHFPLTFGAGTKLELK 4.67

# input binder: anti-MS4A4A antibody 4A-9 (antibody, V domains shown, murine hybridoma antibody) VH: DVQLQESGPGLVKPSQSLSLTCSVTGYSITSGYYWNWIRQFPGNKLEWMGYISYDGNNKYNPSLKNRISITRDTSKNQFFLKLNSVTTEDTATYYCANRDYWGQGTTLTVSS VL: DVLMTQTPLSLPVSLGDQASISCRSSQNIVHSNGITYLEWFLQKPGQSPTLLIYKISNRFSGVPDRFSGSGSGTDFTLKISRVEAEDLGVYYCFQGSHVPYTFGGGTKLDIK ; wanted: its Cyno 4A:parental cell ratio 3.46

Data provenance: patent US20230126400A1
